# TESTED_SYSTEM: PARK7 (Homo sapiens)
# ASSAY_METHOD_TEXT: DiFMUAc PARK7 activity assay
# Assay type: biochemical
# Parameters: GST (N, cleaved yes); made in house; host or cells: E. coli BL21(DE3) Rosetta2
# CONDITION_DETAILS: DiFMUAc assay, PARK7 0.1 μM, 1 h preincubation, DiFMUAc 300 μM
Kindly state IC50 for each of the entries shown.
One number for each entry, in nM.

O=C1C(=O)N(CCc2ccccc2)c2ccc(F)cc21 [STK793590, reference compound]    190

Kindly state the measured IC50 obtained for `N#CN1CC[C@@H](C(=O)Nc2nc3c(s2)CN(C(=O)CN=[N+]=[N-])CC3)C1` with PARK7 (Homo sapiens).
130

* * *

# TESTED_SYSTEM: PARK7 (Homo sapiens)
# Sequence (Q99497 1-189): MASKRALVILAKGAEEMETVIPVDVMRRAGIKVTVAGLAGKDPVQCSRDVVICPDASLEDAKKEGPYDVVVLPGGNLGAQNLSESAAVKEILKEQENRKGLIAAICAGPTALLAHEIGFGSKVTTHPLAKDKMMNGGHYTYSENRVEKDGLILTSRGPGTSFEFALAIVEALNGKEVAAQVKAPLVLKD
# ASSAY_METHOD_TEXT: FP assay with Rhodamine110 probe JYQ-107 (IC50 and hit validation)
# Type: binding
# Design: GST (N, cleaved yes); made in house; host or cells: E. coli BL21(DE3) Rosetta2
# CONDITION_DETAILS: 12.5 µM compound, PARK7 0.2 μM, 1 h preincubation, JYQ-107 20 nM
Kindly state FP assay %Inhibiton (12.5 µM) for each of the entries shown.
One number for each entry, in %.

# batch: return FP assay %Inhibiton (12.5 µM) for each of the 3 compounds below
1. O=[N+]([O-])c1cccc(S(=O)(=O)F)c1
2. CC(C#N)NS(=O)(=O)c1cccc(S(=O)(=O)F)c1 (stereo not drawn)
3. Cc1conc1NS(=O)(=O)c1cccc(S(=O)(=O)F)c1

[100.0, 100.0, 100.0]

// each compound listed below needs its FP assay %Inhibiton (12.5 µM)
1. O=[N+]([O-])c1ccccc1S(=O)(=O)F
2. O=C(CSC(F)(F)F)Nc1cccc(S(=O)(=O)F)c1
3. CSC1(C(=O)Nc2cccc(S(=O)(=O)F)c2)CC1

[100.0, 98.9, 98.3]

* * *

Please respond with reported inhibition at 37.5 µM for every item in the list.
# TESTED_SYSTEM: PARK7 (Homo sapiens, UniProt Q99497)
# ASSAY_METHOD_TEXT: FP assay with Rhodamine110 probe JYQ-107 (IC50 and hit validation)
# Assay type: binding
# Design: GST (N, cleaved yes); made in house; host or cells: E. coli BL21(DE3) Rosetta2
# CONDITION_DETAILS: 37.5 µM compound, PARK7 0.2 μM, 1 h preincubation, JYQ-107 20 nM; read-out: FP assay %Inhibiton (37.5 µM)

# count of solved cases: 5
O=C(CCl)c1ccccn1    0%
CC1CCC(N(C)C(=O)CCl)CC1 (centres unmarked)    100%
CCc1ccc(NC(=O)CCl)cc1    95.6%
CCN(c1ccc(NC(=O)CCl)cc1)C(C)C    100%
Cc1cc(C(=O)CCl)c(C)[nH]1    16.2%

For every item in the list below, what is its measured inhibition at 37.5 µM?
1. O=C(CCl)C1CCOCC1
2. NC(=O)c1csc(C(=O)CCl)c1
3. CC(c1ccccc1)N(C)C(=O)CCl (centres unmarked)

["100%", "25.8%", "89.7%"]

* * *

# TESTED_SYSTEM: PARK7 (Homo sapiens, UniProt Q99497)
# Sequence (Q99497 1-189): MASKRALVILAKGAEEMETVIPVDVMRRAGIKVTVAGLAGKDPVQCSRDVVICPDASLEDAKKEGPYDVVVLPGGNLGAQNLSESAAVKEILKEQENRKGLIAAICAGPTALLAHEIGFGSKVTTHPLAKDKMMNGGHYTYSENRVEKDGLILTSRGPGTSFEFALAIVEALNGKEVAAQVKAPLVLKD
# ASSAY_METHOD_TEXT: FP assay with Rhodamine110 probe JYQ-107 (IC50 and hit validation)
# Type: binding
# Design: GST (N, cleaved yes); made in house; host or cells: E. coli BL21(DE3) Rosetta2
# CONDITION_DETAILS: PARK7 0.2 μM, 1 h preincubation, JYQ-107 20 nM
OBSERVED_PROPERTY: IC50 (nM)
Numbers only, in nM.

Sample `N#CN1CC[C@@H](C(=O)Nc2nc3c(s2)CN(C(=O)CN=[N+]=[N-])CC3)C1` — what was its IC50?
240

* * *

For each of the molecules below, state its inhibition at 12.5 µM.
# TESTED_SYSTEM: PARK7 (Homo sapiens)
# ASSAY_METHOD_TEXT: DiFMUAc PARK7 activity assay
# Format: biochemical
# Design: GST (N, cleaved yes); made in house; host or cells: E. coli BL21(DE3) Rosetta2
# CONDITION_DETAILS: read-out: DiFMuAc assay %Inhibiton (12.5 µM)
Answers are plain numbers, in %.

Would you please look over these solved cases?
CC(C)CC(=O)NNS(=O)(=O)c1cccc(S(=O)(=O)F)c1    94
O=S(=O)(F)c1cccc(S(=O)(=O)Nc2cccnc2O)c1    97.1
O=C(NNS(=O)(=O)c1cccc(S(=O)(=O)F)c1)C1CCC1    95.7
CCn1ncnc1NS(=O)(=O)c1cccc(S(=O)(=O)F)c1    100

Turning now to a further record.
Looking for the measured inhibition at 12.5 µM of `CCCc1nnc(NS(=O)(=O)c2cccc(S(=O)(=O)F)c2)o1` , can you help?
97.8

* * *

# TESTED_SYSTEM: PARK7 (Homo sapiens)
# Sequence (Q99497 1-189): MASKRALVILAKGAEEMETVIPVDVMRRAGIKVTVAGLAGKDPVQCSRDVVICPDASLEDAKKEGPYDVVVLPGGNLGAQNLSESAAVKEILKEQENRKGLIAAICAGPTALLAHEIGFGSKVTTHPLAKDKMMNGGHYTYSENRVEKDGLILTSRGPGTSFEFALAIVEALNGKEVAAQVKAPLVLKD
# ASSAY_METHOD_TEXT: DiFMUAc PARK7 activity assay
# Type: biochemical
# Design: GST (N, cleaved yes); made in house; host or cells: E. coli BL21(DE3) Rosetta2
# CONDITION_DETAILS: read-out: DiFMuAc assay %Inhibiton (100 µM)
OBSERVED_PROPERTY: inhibition at 100 µM (%)
One number for each entry, in %.

For orientation, consider the following solved cases.
CCCc1nnc(NS(=O)(=O)c2cccc(S(=O)(=O)F)c2)o1    96.5
O=S(=O)(F)c1cccc(S(=O)(=O)Nc2cccnc2O)c1    100
O=C(NNS(=O)(=O)c1cccc(S(=O)(=O)F)c1)C1CCC1    96.8
CCn1ncnc1NS(=O)(=O)c1cccc(S(=O)(=O)F)c1    100

Data request, read-out inhibition at 100 µM, for `CC(C)CC(=O)NNS(=O)(=O)c1cccc(S(=O)(=O)F)c1`
94.4

* * *

# TESTED_SYSTEM: PARK7 (Homo sapiens, UniProt Q99497)
# ASSAY_METHOD_TEXT: DiFMUAc PARK7 activity assay
# Format: biochemical
# Design: GST (N, cleaved yes); made in house; host or cells: E. coli BL21(DE3) Rosetta2
# CONDITION_DETAILS: 100 µM compound, PARK7 0.1 μM, 2 h preincubation, DiFMUAc 300 μM; read-out: DiFMuAc assay %Inhibiton (100 µM)
Provide the reported inhibition at 100 µM of each item.
One number for each entry, in %.

Observe how each entry below is paired with its result.
CC1=NOC(=O)C1CC(=O)O (stereo not drawn) [Z367451146]    100
O=C(CCl)c1ccc(F)c(C(=O)CCl)c1 [Z2768504793]    95.9
O=C(O)c1csc(C(=O)CCl)c1 [Z763366298]    97.3
CC(C)(C)c1ccc(NC(=O)CCl)cc1 [Z56922153]    100
CC1CCc2ccccc2N1C(=O)CCl (stereo not drawn) [Z220564178]    91.4
O=C(CCl)C1CCOCC1 [Z2491498268]    93.2

Can you give me inhibition at 100 µM for all of these, one by one?
1. CCN(c1ccc(NC(=O)CCl)cc1)C(C)C [Z56896170]
2. CCC(C)c1ccc(NC(=O)CCl)cc1 (stereo not drawn) [Z56886389]
3. CC1CCC(N(C)C(=O)CCl)CC1 (stereo not drawn) [Z85923410]

1. 97.4
2. 97.1
3. 97.4
